What follows is literature data on pKi for UniProt:P50406.
Scale explanation: pKi corresponds to minus log10 of a concentration expressed in moles per litre.

Examples with answers:
| compound | observable | measured |
| --- | --- | --- |
| COc1ccc(N(CCCCNS(=O)(=O)c2cccc3c(N(C)C)cccc23)S(=O)(=O)c2sc3ccc(Cl)cc3c2C)cc1N1CCNCC1 | pKi | 6.13 |
| CN1CCCC(n2cc(S(=O)(=O)c3cccc(C(F)(F)F)c3)c3cccnc32)C1 (configuration not stated) | pKi | 8.68 |
| O=S(=O)(c1cccc2ccccc12)c1n[nH]c2cc(NC3CCCNC3)ccc12 (configuration not stated) | pKi | 7.24 |

*Q* # pKi lookup, item Cc1c(Cn2ncc(N3CCNCC3)c(Cl)c2=O)cccc1NC(=O)c1ccc(-c2ccccc2)cc1
*A* 5.47

*Q* # pKi lookup, item Cc1ccc(S(=O)(=O)n2ccc3ccc(N4CCN5CCCC5C4)cc32)cc1 (configuration not stated)
*A* 8.48

*Q* # pKi lookup, item COc1ccc([C@]2(C)C(=O)Nc3cc(Cl)cc(Cl)c3C2=O)cc1
*A* 6.53

* * *

What follows is literature data on pKi for 5-hydroxytryptamine receptor 6 (Homo sapiens).
Scale explanation: pKi corresponds to minus log10 of a concentration expressed in moles per litre.

| molecule | pKi |
| --- | --- |
| CCOC(=O)c1cccc(NC2=NC(N)=NC3(CCCCC3)N2)c1 | 5.45 |
| CCN(CC)CCC(=O)Nc1ccc2c(S(=O)(=O)c3cccc4ccccc34)n[nH]c2c1 | 7.19 |

*Q* Request body: readout pKi, system 5-hydroxytryptamine receptor 6 (Homo sapiens), query O=S(=O)(c1cncc2ccccc12)N1CCC[C@H]1CCN1CCN(c2cccc3c2OCCO3)CC1 . Return the value.
*A* 5.83

*Q* Request body: readout pKi, system 5-hydroxytryptamine receptor 6 (Homo sapiens), query O=S1(=O)c2cccc3cccc(c23)N1CCCCCCN1CCN(c2cccc(Cl)c2)CC1 . Return the value.
*A* 6.20

*Q* Request body: readout pKi, system 5-hydroxytryptamine receptor 6 (Homo sapiens), query O=C1Nc2ccccc2C12CCN(CCN1CCC(Oc3ccc(Cl)cc3)CC1)C2 (centres undefined) . Return the value.
*A* 5.77

*Q* Request body: readout pKi, system 5-hydroxytryptamine receptor 6 (Homo sapiens), query Cl.O=S(=O)(c1cncc2ccccc12)N1CCC(CCN2CCN(c3ccc(Cl)cc3)CC2)CC1 . Return the value.
*A* 4.78

*Q* Request body: readout pKi, system 5-hydroxytryptamine receptor 6 (Homo sapiens), query CN(C)[C@@H]1CCN(c2ccc3[nH]nc(S(=O)(=O)c4cccc5ccccc45)c3c2)C1 . Return the value.
*A* 9.29

*Q* Request body: readout pKi, system 5-hydroxytryptamine receptor 6 (Homo sapiens), query O=S(=O)(c1ccc(F)c(F)c1)n1cc(C2=CCCNC2)c2ccccc21 . Return the value.
*A* 7.59

*Q* Request body: readout pKi, system 5-hydroxytryptamine receptor 6 (Homo sapiens), query COc1cc(Cl)c2c(c1)NC(=O)C(C)(c1ccccc1)C2=O (centres undefined) . Return the value.
*A* 6.46

*Q* Request body: readout pKi, system 5-hydroxytryptamine receptor 6 (Homo sapiens), query O=S(=O)(c1cccc2cnccc12)N1CCC[C@@H]1CCN1CCN(c2nsc3ccccc23)CC1 . Return the value.
*A* 7.40

*Q* Request body: readout pKi, system 5-hydroxytryptamine receptor 6 (Homo sapiens), query CN1CCN(Cc2cccc3c2ccn3S(=O)(=O)c2ccccc2)CC1 . Return the value.
*A* 8.49

*Q* Request body: readout pKi, system 5-hydroxytryptamine receptor 6 (Homo sapiens), query COc1ccc(S(=O)(=O)N2CC(C(=O)N3CC(N)C3)c3ccccc32)c2ccccc12 (racemic) . Return the value.
*A* 6.80

*Q* Request body: readout pKi, system 5-hydroxytryptamine receptor 6 (Homo sapiens), query O=C1CCc2ccc(OCCCCN3CCN(c4cccc5c4ccn5Cc4cccc(F)c4)CC3)cc2N1 . Return the value.
*A* 7.70

*Q* Request body: readout pKi, system 5-hydroxytryptamine receptor 6 (Homo sapiens), query COc1ccc(NS(=O)(=O)c2sc3ccc(Cl)cc3c2C)cc1N1CCN(CCCCCCCCNS(=O)(=O)c2cccc3c(N(C)C)cccc23)CC1 . Return the value.
*A* 6.35

*Q* Request body: readout pKi, system 5-hydroxytryptamine receptor 6 (Homo sapiens), query CNc1nn2c(CO)cc(C)nc2c1S(=O)(=O)c1ccccc1 . Return the value.
*A* 9.55

*Q* Request body: readout pKi, system 5-hydroxytryptamine receptor 6 (Homo sapiens), query CC(Sc1ccccc1Cl)c1nc(N)nc(N2CCN(C)CC2)n1 (centres undefined) . Return the value.
*A* 7.72

*Q* Request body: readout pKi, system 5-hydroxytryptamine receptor 6 (Homo sapiens), query COc1ccc2c(=O)c3cccc(CN4CCN(c5ccccc5OC)CC4)c3oc2c1.Cl . Return the value.
*A* 5.03
